Data provenance is patent US20150045551A1.

- study.target: Human V1b receptor (Homo sapiens, UniProt P47901)
- Sequence (P47901 whole entry): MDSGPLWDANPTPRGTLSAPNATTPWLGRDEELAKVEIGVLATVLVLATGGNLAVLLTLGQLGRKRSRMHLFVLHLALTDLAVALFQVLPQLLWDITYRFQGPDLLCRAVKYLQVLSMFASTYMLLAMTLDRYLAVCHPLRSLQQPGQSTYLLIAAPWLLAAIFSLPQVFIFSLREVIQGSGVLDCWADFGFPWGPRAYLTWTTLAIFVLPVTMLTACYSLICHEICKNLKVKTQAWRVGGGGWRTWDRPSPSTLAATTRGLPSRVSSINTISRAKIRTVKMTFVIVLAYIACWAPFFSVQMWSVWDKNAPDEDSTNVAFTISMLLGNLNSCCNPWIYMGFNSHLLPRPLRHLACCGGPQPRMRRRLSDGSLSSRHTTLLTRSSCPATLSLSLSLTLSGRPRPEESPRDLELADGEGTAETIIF
- procedure.summary: Binding test for V1b receptor ([3H]AVP displacement, crude membrane preparation)
- Parameters: expressed in transfected cells; host or cells: 293FT cells (transient expression)
- condition.label: [3H]AVP 0.4 to 1 nmol/L; membranes of 293FT cells transiently expressing human V1b receptor; room temperature, 60 minutes
pIC50: −log10 of the molar value.
parameter.measured: pIC50

{"structure.notation": "CC(C)NC(=O)Cn1c(-c2ccc(F)c(Cl)c2)cc2cc(OCCCN3CCCCC3)ccc21", "parameter.measured": "pIC50", "endpoint.value": 8.31}
{"structure.notation": "CC(C)NC(=O)Cc1c(-c2ccc(F)c(Cl)c2)nc2cc(OCCCN3CCCCC3)ccn12", "parameter.measured": "pIC50", "endpoint.value": 7.97}
{"structure.notation": "CC(C)NC(=O)Cn1c(-c2cccc(Cl)c2)cc2cc(CCCCN3CCCCC3)ccc21", "parameter.measured": "pIC50", "endpoint.value": 7.70}
{"structure.notation": "CC(C)NC(=O)Cn1c(-c2cccc(Cl)c2)cc2cc(OCCCN3CC4(COC4)C3)ccc21", "parameter.measured": "pIC50", "endpoint.value": 8.28}
{"structure.notation": "COc1cc(-c2cc3cc(OCCCN4CCC(O)CC4)ccc3n2CC(=O)NC(C)C)ccc1F", "parameter.measured": "pIC50", "endpoint.value": 7.34}
